TARGET SYSTEM: serotonin transporter (Rattus norvegicus)
Sequence (P31652 whole entry): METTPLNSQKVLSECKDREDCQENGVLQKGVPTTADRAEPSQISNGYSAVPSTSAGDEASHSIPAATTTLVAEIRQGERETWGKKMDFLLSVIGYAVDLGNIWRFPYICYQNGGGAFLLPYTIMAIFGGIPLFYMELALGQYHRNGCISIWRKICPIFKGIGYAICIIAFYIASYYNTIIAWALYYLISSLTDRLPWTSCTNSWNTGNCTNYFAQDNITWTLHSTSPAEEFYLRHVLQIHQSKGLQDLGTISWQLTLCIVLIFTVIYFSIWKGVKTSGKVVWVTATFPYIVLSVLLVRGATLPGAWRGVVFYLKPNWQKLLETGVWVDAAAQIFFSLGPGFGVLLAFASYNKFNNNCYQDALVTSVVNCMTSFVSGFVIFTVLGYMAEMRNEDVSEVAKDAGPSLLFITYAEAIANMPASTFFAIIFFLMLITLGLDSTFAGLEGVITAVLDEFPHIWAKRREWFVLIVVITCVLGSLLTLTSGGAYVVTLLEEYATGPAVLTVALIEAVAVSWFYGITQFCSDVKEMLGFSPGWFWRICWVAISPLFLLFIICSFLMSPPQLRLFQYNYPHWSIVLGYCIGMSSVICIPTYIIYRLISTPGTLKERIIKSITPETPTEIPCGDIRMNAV
ASSAY REMARKS: Serotonin transporter/uptake assay: synaptosomal uptake of 3H-5-hydroxytryptamine
Type: biochemical
REPORTED CONDITIONS: synaptosomes from cerebral cortices of male Wistar rats; 3H-5-HT 1 nM; 30 minutes at 37° C.; read-out: Serotonin uptake IC50
PROPERTY MEASURED: IC50
Provide the measurement as a number trailed by its unit.

Consider the following illustrative entries.
Field request: IC50 | item: CN1C[C@@H]2C[C@H]1CN2c1ccc2ccccc2n1 130 nM

Field request: IC50 | item: CN1C[C@@H]2C[C@H]1CN2c1ccc2cc(N)ccc2n1 840 nM

From here, focus on the item given below.
Field request: IC50 | item: c1ccc2sc(N3C[C@@H]4C[C@H]3CN4)nc2c1 350 nM

Hey, just so you know, these numbers are from patent US7329754B2.
